Quick reference for IC50 among some molecules
- Test system: human PBMCs
- Test protocol: CD3/CD28 stimulated IL-2 release NECA reversal assay in human PBMCs;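 further: dose-response as % inhibition where 100% equals no-NECA control wells with CD3/CD28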
- Type: cell-based
- Assay conditions: PBMC, CD3/CD28 antibody stimulated, 1 uM NECA, 24 hours, IL-2 in culture supernatant
Just the number in nM, nothing appended.

// known answers, use as guide
                               smiles_input  measured_property  value_reported
0   N#Cc1cccc(-c2nn3ccc(N)nc3c2-c2ccncc2)c1               IC50             305
1  Cc1cc(-c2c(-c3cccc(C#N)c3)nn3ccc(C(=O)N[C@H](C)[C@H](O)CO)nc23)cc(Cl)n1               IC50               4
2  Cc1cc(-c2c(-c3cccc(C#N)c3)nn3ccc(C(=O)N[C@H]4C[C@H](O)C4)nc23)cc(Cl)n1               IC50              26

Shift focus to the following entry.
GET /values?readout=IC50&item= N#Cc1cccc(-c2nn3ccc(NCc4ccccc4)nc3c2C#N)c1 118
